tested on: MS2 coat protein; assay: apparent KD of MS2 coat protein; designed switch direction (-1 OFF switch, 1 ON switch): -1; higher = weaker reporter binding; conditions: input ligand: FMN 200 uM
Rule: satisfied for apparent KD of MS2 coat protein not less than 40 nM, not satisfied for anything less.

GAAUAGAGAGGAUAUGCGUAGUAGGUAGUAAGAUAUAUAUGACAUGAGGAUCACCCAUGUAGAAGGCUCAGAUA [EX2 #2] (Eterna round: R97, puzzle: Exclusion 2) ... not satisfied

Exam item: decide whether the reported apparent KD of MS2 coat protein for AACUUCUGAGGAUAUACAUAGAUUUACAUGAGGAUCACCCAUGUUCCUCUAUGUAUAAAUGUAGAAGGCAGAAGAG [Mat - Exclusion 5 - JL Mod - D63] (Eterna round: R97, puzzle: Exclusion 5) is at least 40 nM.
satisfied

Exam item: decide whether the reported apparent KD of MS2 coat protein for GUCUUGUCAGGAUAUCUUACAUAACCAUCGUAGUUACAAUUGGAGAAGGGACAUGAGGAUCACCCAUGUUUGCG [tap-tap-tappy32] (Eterna round: R97, puzzle: Exclusion 4) is at least 40 nM.
not satisfied

Exam item: decide whether the reported apparent KD of MS2 coat protein for AAUUUAAUUAACAAGCUUUACAUGAGGAUCACCCAUGUGAUCAUGCUCGUCUUAUAAUUAAUUAAUUAAUUAAUUAA [Stov1/6-A1] (Eterna round: R97, puzzle: Sensor, turn-off variant 1) is at least 40 nM.
satisfied

Exam item: decide whether the reported apparent KD of MS2 coat protein for AAAUCACAUGAGGAUCACCCAUGUCAGGAUAUCGACUGAACAGCUUCGGCUGUUCAGUCGAGAAGGGACAAUUA [Brourdxlusion 1 - Jieux - Exclusion 1] (Eterna round: R97, puzzle: Exclusion 1) is at least 40 nM.
satisfied

Exam item: decide whether the reported apparent KD of MS2 coat protein for CCAAGCUUAUUCAUUAACCACAUGAGGAUCACCCAUGUAUAGGCAAUUAUGACUGGGCUCUGUGGUGCUCGUCUUAU [Sensor-V1 #27] (Eterna round: R97, puzzle: Sensor, turn-off variant 1) is at least 40 nM.
satisfied

----------
system: MS2 coat protein; test: apparent KD of MS2 coat protein; higher = weaker reporter binding; details: Eterna round: R107; input ligand: theophylline 2 mM
MEASUREMENT_LABEL: apparent KD of MS2 coat protein (nM)
Unit nM implied. Number only.

Below are worked cases with known answers.
AACUACUCGAGGUGAUCCUACGAGUGGCAACGAGGACCGGUACGGCCGCCACUCGAAUAAACAUGAGGAUCACCCAUGUACAAAU [T''-M'-T'-T-MS2 - Design 12] ... 220
ACAUGAGGAUCACCCAUGUACUGGAUCUAACGAGGACCGGUACGGCCGCCACUCGAAGAUAGGACUAUGGAAACAUAGCUUAUCA [Design 1] ... 18.4
GGGCAAGAGGGAAGGAGCGUUAGCUGAGUCACAUGAGGAUCACCCAUGUCGCACAUAGUAUGACAGGUAGGUCGCCCUCUACCCU [SS-ArgB14] ... 18.2
GCUCACAUGAGGAUCACCCAUGUACGUCCGCGAGGACCGGUACGGCCGCCACUCGUGUUAGCUUCAAACUUGUUAGUGUUAAACA [Atleerge] ... 68.4
ACAUGAAUAUCAUCUAUUUAUUGUACUGAAGGAGCGUCCAUGAGGACAGGUAGGUCGCAGUGUAAAACAUGAGGAUCACCCAUGU [Same State - Arginine A #1] ... 29
UUUACGGGAAACCGAACUAAACAAAGGGAAGGAGCGCCAAACAAGGCAGGUAGGUCGCCCACAUGAGGAUCACCCAUGUGUUGGG [Exclusion Arginine A GF 25] ... 64

What value of apparent KD of MS2 coat protein on MS2 coat protein does GGCGCUGCGUCGGCCGCCACUAGCGGGUAAUGGGUGUACAUGAGGAUCACCCAUGUAAUAUGGCCUAGGACCGGGACGUGGCGCC [Moose] have?
465

What value of apparent KD of MS2 coat protein on MS2 coat protein does GGGAGGUAGGCGGCCGCCACUGAUUUUCAUAUAUAUAUAACAUGAGGAUCACCCAUGUAGAUAUACAGGACCGGGCCUAUUUUUU [aaaF] have?
18.2

What value of apparent KD of MS2 coat protein on MS2 coat protein does UGUAUGUGAUCUGAUACCAGUCCAACUGGUAAACCAUGAGGAUCACCCAUGGAAAAUUGGGACCCUUGGCAGCAGAUCGCAUACU have?
20.9

What value of apparent KD of MS2 coat protein on MS2 coat protein does AUCCACAGCCGAAGGAGCGCAGUAGGAUGACAUGAGGAUCACCCAUGUGUGUGAUGUGGAUUGCAGGUAGGUCGCGGAGUGGGUU [Exclusion - Arginine B (Freestyle 8)] have?
73.6

What value of apparent KD of MS2 coat protein on MS2 coat protein does UGUCCUCAUGCGGCCGCCACUGUCGGCCGCCACUAAACCUGAGGAUCACCCGGGUAGGACCGGGACAGGACCGGGCAUGGGUGCU [#DoubleAptamer 4 #AlternativeMS2] have?
686

What value of apparent KD of MS2 coat protein on MS2 coat protein does UAUCCACAUGAGGAUCACCCAUGUAAGGAAGGAGCGGUGAAUGCACCAGGUAGGUCGCCUUGCUGAGGACAGCCGGUGGAUUCGU [Exclusion - Arginine A (Freestyle 24)] have?
21.9
